The origin of these recorded values is ChEMBL document CHEMBL4373746.

assay: Fraction unbound in Wistar Han rat brain at 2 uM incubated for 6 hrs by equilibrium dialysis method
observed.property: fraction unbound at 6 h, 2 µM

compound: COc1ccc(-c2cc3c(C(=O)O)n[nH]c3cc2Cl)cc1
fraction unbound at 6 h, 2 µM: 0.0135

compound: CN(C)C(=O)C(CCN1CCC(O)(c2ccc(Cl)cc2)CC1)(c1ccccc1)c1ccccc1 [LOPERAMIDE]
fraction unbound at 6 h, 2 µM: 0.00591

compound: CC(C)(O)CS(=O)(=O)c1ccc2c(c1)nc(C(C)(C)C)n2CC1CCOCC1
fraction unbound at 6 h, 2 µM: 0.538

compound: C[C@H]1COCCN1c1nc(-c2cnc(N)nc2)c2c(n1)N([C@@]1(C)CCN(C(=O)C(C)(C)N)C1)CC2
fraction unbound at 6 h, 2 µM: 0.0654

compound: CC(C)n1ncc2c1C(=O)CC1(CCN(C(=O)c3ccc4[nH]nc(C(N)=O)c4c3)CC1)C2
fraction unbound at 6 h, 2 µM: 0.0763

compound: O=C(O)c1nc2cc(Cl)c(Cl)cc2nc1O
fraction unbound at 6 h, 2 µM: 1

[P] CCCn1cnc(C[C@H](CCCN)C(=O)O)c1 [UK-396,082]
[Q] C[C@H]1c2cccc(CCC(C)(C)O)c2C[C@H](CO)N1C(=O)Cc1c(Cl)cccc1Cl
[R] CC(=O)NS(=O)(=O)c1ccc(Oc2ccc(F)c(Cl)c2)c(C(F)(F)F)c1
Please order the records by their reported fraction unbound at 6 h, 2 µM, lowest number first. Dear reader, please state the labels in the requested order. Q, R, P

* * *

experiment: Unbound tissue partition coefficient, ratio of drug level in brain to plasma in Wistar Han rat at 1 to 2 mg/kg, iv infused for 10 to 20 hrs by LC-MS/MS analysis; conditions: brain/plasma
observed.property: Kp uu

Before answering, review these 4 worked examples.
compound: CC(C)(CC1Cc2ccccc2C1)NC[C@@H](O)COc1cc(C2CC3CC2C2C(C(=O)O)C32)ccc1C#N (stereo partly drawn)
observed.property: Kp uu
obs.value: 0.0025
--
compound: COc1ccc(-c2cc3c(S(=O)(=O)O)c[nH]c3cc2Cl)cc1
observed.property: Kp uu
obs.value: 0.13
--
compound: COc1ccc2ncc(F)c([C@@H](O)CC[C@@H]3CCN(CCSc4cccs4)C[C@@H]3C(=O)O)c2c1
observed.property: Kp uu
obs.value: 0.0032
--
compound: Cc1nc([C@@H]2CCOC2)c2c(N3CCc4c(c(C5CC5)nn4C)C3)ncnn12
observed.property: Kp uu
obs.value: 0.46

[1] CC1(OC(=O)N2CCC(n3ncc(COc4ccc(C(N)=O)cc4F)c3C#N)CC2)CC1
[2] COc1cc2c(OC[C@H]3NC(=O)[C@@H]4C[C@]34C)nccc2cc1C(N)=O
[3] CCCC(Oc1ccc(-n2cc3ccccc3n2)cc1)c1ccc(C(=O)NCCC(=O)O)cc1 (stereo not drawn)
Rank entries according to their Kp uu, from the largest number down. Dear reader, please state the labels in the requested order. 1, 2, 3

[A] O=C(NC(c1ccccc1)c1ccccc1)C1CC1
[B] Cc1c(C(=O)O)cnn1-c1nc(-c2cccc(C(F)(F)F)c2)cs1
[C] CN(C)C(=O)c1cc(CC(=O)O)ccc1NC(=O)c1ccccc1-c1ccc(C(F)(F)F)cc1
[D] CN1CC[C@H](c2c(O)cc(O)c3c(=O)cc(-c4ccccc4Cl)oc23)[C@H](O)C1
[E] C[C@H](c1nc2cnc(N3CCC[C@@H](C(=O)N4CCCC4)C3)nc2[nH]1)n1cc(Cl)cn1
Please order the records by their reported Kp uu, lowest number first. Dear reader, please state the labels in the requested order. C, E, D, B, A
(C: 0.0037, E: 0.013, D: 0.06, B: 0.12, A: 3.2)

[P] COc1ccc(-c2cc3c(C(=O)O)n[nH]c3cc2Cl)cc1
[Q] N#Cc1ccc(N2N=C(N3CCC(C(=O)N4CCC(O)CC4)CC3)C[C@H]2C2CCCC2)cc1Cl
Quick check, higher Kp uu between P and Q ? Select an item and report its label. Q

[a] CS(=O)(=O)c1cccc(C(=O)O)c1
[b] O=C(O)[C@@H]1CCN(C(=O)n2cnc(-c3ccc(-c4cnc(N5CCOCC5)nc4)cc3)n2)[C@@H](c2ccccc2)C1
[c] Cc1nc2cc(-c3cc(F)cc(C#N)c3)ccc2s1
[d] COc1ccc(Cc2cc([C@@H]3OC4(COC4)[C@@H](O)[C@H](O)[C@H]3O)ccc2C)cc1
Please order the records by their reported Kp uu, lowest number first. Dear reader, please state the labels in the requested order. b, a, d, c
